Counter-ions that a name gives are not always drawn.
The reader will find reported melting point values listed item by item below.

Prompt line: Entry O=C(c1ccc2c(c1)CCN(CCN1CCCC1)C2=O)N1CCCCC1 (as salt: hydrochloride) [Example 155] has what melting point?
Response line: 144 to 147 °C

Prompt line: Entry O=C(NCCF)c1ccc(-c2ccc3c(c2)CCN(CCN2CCCC2)C3=O)cc1 (as salt: hydrochloride) [Example 68] has what melting point?
Response line: 215 to 216 °C

Prompt line: Entry C[C@@H]1CCCN1CCN1CCc2cc(-c3ccc(F)cc3)ccc2C1 [Example 172] has what melting point?
Response line: 232 to 234 °C

Prompt line: Entry C[C@@H]1CCCN1CCN1CCc2cc(-c3ccc(C(=O)NCC4CC4)cc3)ccc2C1=O (as salt: hydrochloride) [Example 73] has what melting point?
Response line: 188 to 190 °C

Prompt line: Entry COc1ccc(-c2ccc3c(c2)CCN(CCN2CCCC2)C3=O)cc1 (as salt: hydrochloride) [Example 23] has what melting point?
Response line: 224 to 225 °C

###

# subject of test: Human Histamine H3 Receptor (Homo sapiens, UniProt Q9Y5N1)
# Construct: expressed in transfected cells; host or cells: HEK293T (stably transfected; membranes prepared from the cells)
# Sequence (Q9Y5N1 whole entry): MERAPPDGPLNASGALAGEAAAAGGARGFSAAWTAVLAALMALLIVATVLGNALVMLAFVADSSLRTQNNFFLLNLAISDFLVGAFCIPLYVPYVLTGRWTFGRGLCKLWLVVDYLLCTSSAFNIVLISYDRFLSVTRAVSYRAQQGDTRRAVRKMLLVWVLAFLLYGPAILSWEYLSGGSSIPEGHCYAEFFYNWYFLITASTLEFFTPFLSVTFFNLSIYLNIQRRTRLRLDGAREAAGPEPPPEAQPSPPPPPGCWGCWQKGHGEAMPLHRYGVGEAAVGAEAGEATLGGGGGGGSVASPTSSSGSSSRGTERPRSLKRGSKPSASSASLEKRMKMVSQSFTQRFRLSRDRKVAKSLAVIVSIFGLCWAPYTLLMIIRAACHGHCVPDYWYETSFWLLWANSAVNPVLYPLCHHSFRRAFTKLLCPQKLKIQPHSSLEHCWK
# experimental protocol: Methyl histamine binding in human histamine H3 receptor cell line
# condition set: read-out: H3 Binding Ki
# Experimental: Evaluation of Methyl Histamine Binding in Human Histamine H3 Receptor Cell Line The affinity of test compounds for the histamine 3 (H3) receptor is evaluated in the following manner. […] The resulting pellets are stored at −80° C. until ready for use. […] Protein concentration (ug/ul) is determined using the Micro-BCA Protein Determination. […] Non-specific binding is determined in the presence of 10 uM clobenpropit. […] The CPM per well is measured on a Packard Top Count NXT. Ki values are determined in nM. […]
Counter-ions that a name gives are not always drawn.
The reader will find reported Ki values listed item by item below.

Prompt line: Entry O=C(NCC1CC1)c1ccc(-c2ccc3c(c2)CCN(CCN2CCCC2)C3=O)cc1 has what Ki?
Response line: < 10 nM

Prompt line: Entry N#Cc1ccc(Oc2ccc3c(c2)CCN(CCN2CCCC2)C3=O)nc1 has what Ki?
Response line: 10.1 to 25 nM

Prompt line: Entry C[C@H]1CCCN1CCN1CCc2cc(-c3ccc(F)cc3)ccc2C1=O [Example 39, hydrochloride] has what Ki?
Response line: 10.1 to 25 nM

Prompt line: Entry CC(C)NC(=O)c1ccc(-c2ccc3c(c2)CCN(CCN2CCC[C@H]2C)C3=O)cc1 has what Ki?
Response line: < 10 nM

###

Counter-ions that a name gives are not always drawn.
The reader will find reported melting point values listed item by item below.

INSERT INTO assay_data (compound, observed_result) VALUES
  ('O=C1c2ccc(-n3cccn3)cc2CCN1CCN1CCCC1 (as salt: hydrochloride) [Example 37]', '174 to 175 °C'),
  ('O=C1c2ccc(-c3ccc(F)c(F)c3)cc2CCN1CCN1CCCC1 (as salt: hydrochloride) [Example 17]', '179 to 180 °C');

Prompt line: Entry CNC(=O)c1ccc(-c2ccc3c(c2)CCN(CCN2CCCC2)C3=O)c(F)c1 (as salt: hydrochloride) [Example 139] has what melting point?
Response line: 188 to 190 °C

Prompt line: Entry CC(C)NC(=O)c1ccc(-c2ccc3c(c2)CCN(CCN2CCC[C@H]2C)C3=O)cc1 (as salt: hydrochloride) [Example 77] has what melting point?
Response line: 188 to 189 °C

Prompt line: Entry C[C@@H]1CCCN1CCN1CCc2cc(-c3ccc4c(c3)CCNC4=O)ccc2C1=O (as salt: hydrochloride) [Example 157] has what melting point?
Response line: 272 to 273.5 °C

Prompt line: Entry CC(C)NC(=O)c1ccc(-c2ccc3c(c2)C(=O)N(CCN2CCC[C@H]2C)CC3)cc1 (as salt: hydrochloride) [Example 85] has what melting point?
Response line: 248 to 250 °C

###

# subject of test: Human Histamine H3 Receptor (Homo sapiens)
# Construct: expressed in transfected cells; host or cells: HEK293T (stably transfected; membranes prepared from the cells)
# experimental protocol: Methyl histamine binding in human histamine H3 receptor cell line
# condition set: read-out: H3 Binding Ki
# Experimental: Evaluation of Methyl Histamine Binding in Human Histamine H3 Receptor Cell Line The affinity of test compounds for the histamine 3 (H3) receptor is evaluated in the following manner. […] The resulting pellets are stored at −80° C. until ready for use. […] Protein concentration (ug/ul) is determined using the Micro-BCA Protein Determination. […] Non-specific binding is determined in the presence of 10 uM clobenpropit. […] The CPM per well is measured on a Packard Top Count NXT. Ki values are determined in nM. […]
pKi: −log10 of the molar value.
The reader will find reported pKi values listed item by item below.

INSERT INTO assay_data (line_notation, observed_result) VALUES
  ('C[C@@H]1CCCN1CCN1CCc2ccc(-c3ccc(C#N)cc3)cc2C1=O', '> 8.00');

Prompt line: Given the entry CCN(CC)C(=O)c1ccc(Oc2ccc3c(c2)CCN(CCN2CCCC2)C3=O)cc1 , what pKi was observed with Human Histamine H3 Receptor (Homo sapiens)?
Response line: 7.30 to 7.60

Prompt line: Given the entry CN(C)C(=O)c1ccc(Oc2ccc3c(c2)CCN(CCN2CCCC2)C3=O)cc1 , what pKi was observed with Human Histamine H3 Receptor (Homo sapiens)?
Response line: 7.30 to 7.60

Prompt line: Given the entry CC(C)NC(=O)c1ccc(-c2ccc3c(c2)CCN(CCN2CCCC2)C3=O)cc1 , what pKi was observed with Human Histamine H3 Receptor (Homo sapiens)?
Response line: > 8.00

###

# subject of test: Human Histamine H3 Receptor (Homo sapiens)
# Construct: expressed in transfected cells; host or cells: HEK293T (stably transfected; membranes prepared from the cells)
# experimental protocol: Methyl histamine binding in human histamine H3 receptor cell line
# condition set: read-out: H3 Binding Ki
test readout: Ki

Here are 5 compounds together with their reported answers.
INSERT INTO measurements (compound, test_readout, observed_result) VALUES
  ('O=C(Nc1nccs1)c1ccc(-c2ccc3c(c2)CCN(CCN2CCCC2)C3=O)cc1 [Example 130]', 'Ki', '< 0.01 µM'),
  ('CNC(=O)c1ccc(-c2ccc3c(c2)C(=O)N(CCN2CCC[C@H]2C)CC3)cc1 [Example 83]', 'Ki', '< 0.01 µM'),
  ('C[C@@H]1CCCN1CCN1CCc2cc(-c3ccc(F)cc3)ccc2C1 [Example 172]', 'Ki', '0.0251 to 0.05 µM'),
  ('O=C(c1ccc(-c2ccc3c(c2)CCN(CCN2CCCC2)C3=O)cc1Cl)N1CCCC1 [Example 134]', 'Ki', '< 0.01 µM'),
  ('CCNC(=O)c1ccc(-c2ccc3c(c2)CCN(CCN2CCCC2)C3)cc1 [Example 182]', 'Ki', '< 0.01 µM');

Next, consider the following compound.
Prompt line: Entry CCNC(=O)c1ccc(Oc2ccc3c(c2)CCN(CCN2CCCC2)C3=O)cc1 [Example 93] has what Ki?
Response line: < 0.01 µM

###

Counter-ions that a name gives are not always drawn.
test readout: melting point

INSERT INTO results (compound, test_readout, observed_result) VALUES
  ('N#Cc1cccc(-c2ccc3c(c2)CCN(CCN2CCCC2)C3=O)c1 (as salt: hydrochloride)', 'melting point', '204 to 206 °C');

Next, consider the following compound.
Prompt line: Entry O=C(c1ccc(-c2ccc3c(c2)CCN(CCN2CCCC2)C3=O)cc1)N1CCC1 (as salt: hydrochloride) has what melting point?
Response line: 229 to 230 °C

###

The reader will find reported pKi values listed item by item below.
# subject of test: Human Histamine H3 Receptor (Homo sapiens)
# Construct: expressed in transfected cells; host or cells: HEK293T (stably transfected; membranes prepared from the cells)
# experimental protocol: Methyl histamine binding in human histamine H3 receptor cell line
# condition set: read-out: H3 Binding Ki
# Experimental: Evaluation of Methyl Histamine Binding in Human Histamine H3 Receptor Cell Line The affinity of test compounds for the histamine 3 (H3) receptor is evaluated in the following manner. […] The resulting pellets are stored at −80° C. until ready for use. […] Protein concentration (ug/ul) is determined using the Micro-BCA Protein Determination. […] Non-specific binding is determined in the presence of 10 uM clobenpropit. […] The CPM per well is measured on a Packard Top Count NXT. Ki values are determined in nM. […]
pKi: −log10 of the molar value. Counter-ions that a name gives are not always drawn.

Here are 5 molecules together with their reported answers.
INSERT INTO assay_data (molecule, observed_result) VALUES
  ('O=C(c1ccc(-c2ccc3c(c2)CCN(CCN2CCCC2)C3)cc1)N1CCOCC1', '> 8.00'),
  ('O=C(c1ccc2c(c1)CCN(CCN1CCCC1)C2=O)N1CCCC1 [Example 38, hydrochloride]', '7.60 to 8.00'),
  ('FC(F)(F)Oc1ccc(-c2ccc3c(c2)CCN(CCN2CCCC2)C3)cc1', '< 7.00'),
  ('N#Cc1cccc(-c2ccc3c(c2)CCN(CCCN2CCCC2)C3=O)c1', '7.30 to 7.60'),
  ('O=C(NCc1ccco1)c1ccc(-c2ccc3c(c2)CCN(CCN2CCCC2)C3=O)cc1', '> 8.00');

Prompt line: Given the entry O=C1c2ccc(-c3ccccc3F)cc2CCN1CCN1CCCC1 , what pKi was observed with Human Histamine H3 Receptor (Homo sapiens)?
Response line: 7.60 to 8.00

Prompt line: Given the entry O=C1c2ccc(-c3ccc(F)cc3F)cc2CCN1CCN1CCCC1 , what pKi was observed with Human Histamine H3 Receptor (Homo sapiens)?
Response line: > 8.00

Prompt line: Given the entry CNC(=O)c1ccc(-c2ccc3c(c2)CCN(CCN2CCCC2)C3)cc1 , what pKi was observed with Human Histamine H3 Receptor (Homo sapiens)?
Response line: > 8.00

Prompt line: Given the entry O=C(NC1CC1)c1ccc(Oc2ccc3c(c2)CCN(CCN2CCCC2)C3=O)cc1 , what pKi was observed with Human Histamine H3 Receptor (Homo sapiens)?
Response line: > 8.00

Prompt line: Given the entry CN(C)C(=O)c1ccc(-c2ccc3c(c2)CCN(CCN2CCCC2)C3=O)c(F)c1 , what pKi was observed with Human Histamine H3 Receptor (Homo sapiens)?
Response line: > 8.00

Prompt line: Given the entry O=C(c1ccc(-c2ccc3c(c2)CCN(CCN2CCCC2)C3=O)cc1)N1CCOCC1 , what pKi was observed with Human Histamine H3 Receptor (Homo sapiens)?
Response line: > 8.00

Prompt line: Given the entry CCNC(=O)c1ccc(-c2ccc3c(c2)C(=O)N(CCN2CCC[C@H]2C)CC3)cc1 , what pKi was observed with Human Histamine H3 Receptor (Homo sapiens)?
Response line: > 8.00

Prompt line: Given the entry C[C@@H]1CCCN1CCN1CCc2cc(OCc3ccc(C#N)cc3)ccc2C1=O [Example 120, hydrochloride] , what pKi was observed with Human Histamine H3 Receptor (Homo sapiens)?
Response line: > 8.00

Prompt line: Given the entry CNC(=O)c1ccc(Oc2ccc3c(c2)CCN(CCN2CCCC2)C3=O)nc1 [Example 101, hydrochloride] , what pKi was observed with Human Histamine H3 Receptor (Homo sapiens)?
Response line: 7.30 to 7.60

Prompt line: Given the entry C[C@@H]1CCCN1CCN1Cc2cc(-c3ccc(C(=O)N4CCCC4)cc3)ccc2C1=O , what pKi was observed with Human Histamine H3 Receptor (Homo sapiens)?
Response line: < 7.00

Prompt line: Given the entry CC(C)OCCNC(=O)c1ccc(-c2ccc3c(c2)CCN(CCN2CCCC2)C3=O)cc1 , what pKi was observed with Human Histamine H3 Receptor (Homo sapiens)?
Response line: > 8.00

Prompt line: Given the entry N#Cc1cccc(-c2ccc3c(c2)CCN(CCN2CCCC2)C3=O)c1 , what pKi was observed with Human Histamine H3 Receptor (Homo sapiens)?
Response line: > 8.00
